Values from the supplement of paper PMC10307832

List of relative viability values.
system: NCI-H1437; assay: relative viability (nuclei count vs DMSO), 5 days (fraction); higher = more cells survive; conditions: first compound 0.1581 µM
# output: bare number, no unit

Example cases with answers are listed next.
compound="COc1cc2nccc(Oc3ccc(NC(=O)Nc4cc(C)on4)c(Cl)c3)c2cc1OC [Tivozanib] + O=C(CCCCCCC(=O)Nc1ccccc1)NO [Vorinostat] (partner 1 µM)" study_target=NCI-H1437 measurement_name="relative viability" readout_number=0.746
compound="Nc1ccn([C@@H]2O[C@H](CO)[C@@H](O)[C@@H]2O)c(=O)n1 [Cytarabine] + CS(=O)(=O)N1CCN(Cc2cc3nc(-c4cccc5[nH]ncc45)nc(N4CCOCC4)c3s2)CC1 [Pictilisib] (partner 1 µM)" study_target=NCI-H1437 measurement_name="relative viability" readout_number=0.112
compound="Nc1ccn([C@@H]2O[C@H](CO)[C@@H](O)[C@@H]2O)c(=O)n1 [Cytarabine] + CC(=O)Nc1cccc(-n2c(=O)n(C3CC3)c(=O)c3c(Nc4ccc(I)cc4F)n(C)c(=O)c(C)c32)c1 [Trametinib] (partner 0.02 µM)" study_target=NCI-H1437 measurement_name="relative viability" readout_number=0.238

Note: attention shifts to another entry.
What value of relative viability has been reported for the following compound? COc1cc2nccc(Oc3ccc(NC(=O)Nc4cc(C)on4)c(Cl)c3)c2cc1OC [Tivozanib] + O=C(c1cc(Cc2n[nH]c(=O)c3ccccc23)ccc1F)N1CCN(C(=O)C2CC2)CC1 [Olaparib] (partner 8 µM)
0.613

###

tested on: NCI-H2009; test: relative viability (nuclei count vs DMSO), 5 days (fraction); higher = more cells survive; details: first compound 0.02 µM
Measurement name: relative viability
Please reply with the number alone, leaving off any unit.

Record excerpt, results attached:
molecule="CC(=O)O[C@@]12CO[C@@H]1C[C@H](O)[C@@]1(C)C(=O)[C@H](O)C3=C(C)[C@@H](OC(=O)[C@H](O)[C@@H](NC(=O)OC(C)(C)C)c4ccccc4)C[C@@](O)([C@@H](OC(=O)c4ccccc4)[C@H]21)C3(C)C [Docetaxel] + Nc1ncn([C@H]2C[C@H](O)[C@@H](CO)O2)c(=O)n1 [Decitabine] (partner 2 µM)" measurement_name="relative viability" readout_number=0.181
molecule="CC(=O)O[C@@]12CO[C@@H]1C[C@H](O)[C@@]1(C)C(=O)[C@H](O)C3=C(C)[C@@H](OC(=O)[C@H](O)[C@@H](NC(=O)OC(C)(C)C)c4ccccc4)C[C@@](O)([C@@H](OC(=O)c4ccccc4)[C@H]21)C3(C)C [Docetaxel] + CC(C)C[C@H](NC(=O)[C@H](Cc1ccccc1)NC(=O)c1cnccn1)B(O)O [Bortezomib] (partner 0.002 µM)" measurement_name="relative viability" readout_number=0.178

Item: CC(=O)O[C@@]12CO[C@@H]1C[C@H](O)[C@@]1(C)C(=O)[C@H](O)C3=C(C)[C@@H](OC(=O)[C@H](O)[C@@H](NC(=O)OC(C)(C)C)c4ccccc4)C[C@@](O)([C@@H](OC(=O)c4ccccc4)[C@H]21)C3(C)C [Docetaxel] + O=C(CCCCCCC(=O)Nc1ccccc1)NO [Vorinostat] (partner 1 µM) Test system: NCI-H2009 Read-out: relative viability Value: ?
0.176
